- Tgt: PI3Kδ (Homo sapiens (Human))
- Sequence (O00329 whole entry, canonical isoform): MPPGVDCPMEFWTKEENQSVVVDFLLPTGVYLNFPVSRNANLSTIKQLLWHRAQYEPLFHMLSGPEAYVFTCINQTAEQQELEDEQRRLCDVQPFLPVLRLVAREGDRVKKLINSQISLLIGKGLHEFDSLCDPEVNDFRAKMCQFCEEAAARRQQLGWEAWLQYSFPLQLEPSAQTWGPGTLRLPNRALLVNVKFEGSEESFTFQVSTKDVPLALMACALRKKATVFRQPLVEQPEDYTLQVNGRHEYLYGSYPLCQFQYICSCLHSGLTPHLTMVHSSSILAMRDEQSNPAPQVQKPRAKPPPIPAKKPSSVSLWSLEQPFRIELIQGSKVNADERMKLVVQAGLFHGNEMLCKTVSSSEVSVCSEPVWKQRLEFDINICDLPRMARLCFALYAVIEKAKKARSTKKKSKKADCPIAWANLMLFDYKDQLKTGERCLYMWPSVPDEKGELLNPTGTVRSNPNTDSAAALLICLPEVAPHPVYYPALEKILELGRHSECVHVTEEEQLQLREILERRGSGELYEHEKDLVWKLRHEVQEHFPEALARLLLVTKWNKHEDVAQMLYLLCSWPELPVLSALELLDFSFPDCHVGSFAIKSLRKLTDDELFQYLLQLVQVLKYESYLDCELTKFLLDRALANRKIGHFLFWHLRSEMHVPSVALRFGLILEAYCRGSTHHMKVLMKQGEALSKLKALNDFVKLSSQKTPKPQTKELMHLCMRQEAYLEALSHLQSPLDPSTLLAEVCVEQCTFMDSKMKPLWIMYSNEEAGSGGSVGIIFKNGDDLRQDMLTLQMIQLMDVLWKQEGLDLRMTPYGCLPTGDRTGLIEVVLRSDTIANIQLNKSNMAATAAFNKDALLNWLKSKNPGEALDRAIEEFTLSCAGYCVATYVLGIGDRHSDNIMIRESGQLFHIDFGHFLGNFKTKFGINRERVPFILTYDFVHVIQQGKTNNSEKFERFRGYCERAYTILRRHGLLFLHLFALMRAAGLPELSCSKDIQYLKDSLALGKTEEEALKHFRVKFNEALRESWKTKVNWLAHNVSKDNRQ
- Sequence (P27986 whole entry partner, canonical isoform): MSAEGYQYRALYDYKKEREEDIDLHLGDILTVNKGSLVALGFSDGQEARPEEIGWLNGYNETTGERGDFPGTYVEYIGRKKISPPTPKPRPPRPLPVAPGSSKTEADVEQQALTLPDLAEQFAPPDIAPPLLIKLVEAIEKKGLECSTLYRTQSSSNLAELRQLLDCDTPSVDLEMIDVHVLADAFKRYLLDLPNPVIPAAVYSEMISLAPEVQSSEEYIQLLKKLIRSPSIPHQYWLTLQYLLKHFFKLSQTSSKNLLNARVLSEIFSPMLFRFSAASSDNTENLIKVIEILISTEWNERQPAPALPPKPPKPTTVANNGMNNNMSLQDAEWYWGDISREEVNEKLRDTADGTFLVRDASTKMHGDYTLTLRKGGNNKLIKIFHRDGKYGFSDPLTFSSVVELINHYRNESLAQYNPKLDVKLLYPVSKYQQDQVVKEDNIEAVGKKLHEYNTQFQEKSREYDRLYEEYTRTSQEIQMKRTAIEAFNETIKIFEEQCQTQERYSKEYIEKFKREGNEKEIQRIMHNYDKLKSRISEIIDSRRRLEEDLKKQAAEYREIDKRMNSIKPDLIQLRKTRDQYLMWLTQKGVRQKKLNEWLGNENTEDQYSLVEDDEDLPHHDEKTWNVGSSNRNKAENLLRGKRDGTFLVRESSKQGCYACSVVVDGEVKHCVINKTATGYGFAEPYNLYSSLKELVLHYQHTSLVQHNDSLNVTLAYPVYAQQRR
- Measurement description: Enzymatic activity of PI3K isoforms, TR-FRET assay (PI3Kδ)
- Measurement context: 2× Km ATP, geometric mean if more than one value
Below, each entry is listed with its recorded log10(IC50).
Measured parameter: log10(IC50) (log10 of the value in nM)

{"columns": ["Compound", "Measured parameter", "Recorded result"],
 "data": [
  ["Cc1cncc(-n2c([C@H](C)Nc3nc(N)nc(N)c3C#N)nc3cccc(Cl)c3c2=O)c1C (atropisomer, axis not shown) [Compound 77]", "log10(IC50)", 1.88],
  ["Cc1c(F)cncc1-n1c([C@H](C)Nc2nc(N)nc(N)c2C#N)nc2cccc(Cl)c2c1=O (atropisomer, axis not shown) [Compound 46]", "log10(IC50)", 1.58],
  ["C[C@H](Nc1nc(N)nc(N)c1Cl)c1nc2c(Cl)ccc(Cl)c2c(=O)n1-c1ccc(N)nc1 [Compound 83]", "log10(IC50)", 1.08],
  ["CC[C@H](Nc1nc(N)nc(N)c1C#N)c1nc2cccc(Cl)c2c(=O)n1-c1cnc(N)cc1C (atropisomer, axis not shown) [Compound 91]", "log10(IC50)", 0.60],
  ["CC[C@H](Nc1nc(N)nc(N)c1C#N)c1nc2cccc(Cl)c2c(=O)n1-c1cncc(F)c1 [Compound 20]", "log10(IC50)", 0.48],
  ["Cc1ncccc1-n1c([C@H](C)Nc2nc(N)nc(N)c2C#N)nc2cccc(Cl)c2c1=O (atropisomer, axis not shown) [Compound 39]", "log10(IC50)", 0.00],
  ["C[C@H](Nc1nc(N)nc(N)c1C#N)c1nc2ccc(F)cc2c(=O)n1-c1cccnc1 [Compound 5]", "log10(IC50)", 1.15],
  ["N#Cc1c(N)nc(N)nc1N[C@H](c1nc2cccc(Cl)c2c(=O)n1-c1cccnc1)C1CC1 [Compound 3]", "log10(IC50)", -0.22],
  ["C[C@H](Nc1nc(N)nc(N)c1Cl)c1nc2c(Cl)cc(F)cc2c(=O)n1-c1ccc(N)nc1 [Compound 81]", "log10(IC50)", 1.92],
  ["Cc1c(F)cncc1-n1c([C@H](C)Nc2nc(N)nc(N)c2C#N)nc2c(F)ccc(Cl)c2c1=O (atropisomer, axis not shown) [Compound 74]", "log10(IC50)", 0.00],
  ["Cc1c(F)cncc1-n1c([C@@H](Nc2nc(N)nc(N)c2C#N)C2CC2)nc2c(F)ccc(Cl)c2c1=O (atropisomer, axis not shown) [Compound 65]", "log10(IC50)", 1.62],
  ["C[C@H](Nc1nc(N)nc(N)c1C#N)c1nc2cccc(Cl)c2c(=O)n1-c1ccc(N)nc1 [Compound 97]", "log10(IC50)", -0.10],
  ["C[C@H](Nc1nc(N)nc(N)c1Cl)c1nc2cccc(S(C)(=O)=O)c2c(=O)n1-c1cccnc1 [Compound 49]", "log10(IC50)", 1.83],
  ["CC[C@H](Nc1nc(N)nc(N)c1C#N)c1nc2cccc(Cl)c2c(=O)n1-c1cncc(F)c1C (atropisomer, axis not shown) [Compound 71]", "log10(IC50)", 1.69]
]}
